Item-by-item account of pIC50
Biological target: HCV 2b NS3-NS4A heterodimer protein (UniProt P26661)
Construct: fused on or other part: 28 extra N-terminal residues with a hexahistidine tag and an rTEV cleavage site
Experiment: In vitro HCV NS3 protease assay (fluorogenic depsipeptide), genotype 2b
Format: biochemical, HCV genotype 2b
Conditions: read-out: IC50 HCV-2b; HCV 2b NS3-NS4A protease
Formally, pIC50 is defined as -log10 of the concentration c, with c in mol/L.

Illustrative cases are given below, each with its answer.
Suppose we examine the molecule COc1ccc2c(O[C@@H]3C[C@H]4C(=O)N[C@]5(C(=O)O)CC5/C=C\CCCCC[C@H](NC(=O)OC5CCCC5)C(=O)N4C3)cc(-c3csc(NC(C)C)n3)nc2c1 (stereo partly drawn) ; what pIC50 value has been reported?
6.59

Look at this molecule and give its reported pIC50. COc1ccc2c(O[C@@H]3C[C@H]4C(=O)N[C@]5(C(=O)O)CC5/C=C\CCCCC[C@H](NC(=O)OC(C)(C)C)C(=O)N4C3)cc(-c3ccccc3)nc2c1 (stereo partly drawn)
6.00

Next molecule, please.
Query (molecule): COc1ccc2c(O[C@@H]3C[C@H]4C(=O)N[C@]5(C(=O)O)CC5/C=C\CCCCC[C@H](NC(=O)OC(C)(C)C)C(=O)N4C3)cc(-c3csc(NC(C)=O)n3)nc2c1 (stereo partly drawn) ; field requested: pIC50
6.29

###

Biological target: HCV 2a-c NS3-NS4A heterodimer protein (UniProt P26660)
Test: In vitro HCV NS3 protease assay (fluorogenic depsipeptide), genotype 2a-c
Conditions: read-out: IC50 HCV-2a-c; HCV 2a-c NS3-NS4A protease
Measure Name: pIC50
pIC50 here: minus log base 10 of the concentration, concentration in moles per litre.

Before answering, review these 2 worked examples.
I have this compound here, COc1ccc2c(O[C@@H]3C[C@H]4C(=O)N[C@]5(C(=O)O)CC5/C=C\CCCCC[C@H](NC(=O)OC5CCCC5)C(=O)N4C3)cc(-c3csc(NC(C)C)n3)nc2c1 (stereo partly drawn) , and I need its recorded pIC50.
6.70

Need pIC50, item COc1ccc2c(O[C@@H]3C[C@H]4C(=O)N[C@]5(C(=O)O)CC5/C=C\CCCCC[C@H](NC(=O)OC(C)(C)C)C(=O)N4C3)cc(-c3ccccc3)nc2c1 (stereo partly drawn)
6.17

Continue with the next compound.
Please give the measured pIC50 for this compound: COc1ccc2c(O[C@@H]3C[C@H]4C(=O)N[C@]5(C(=O)O)CC5/C=C\CCCCC[C@H](NC(=O)OC(C)(C)C)C(=O)N4C3)cc(-c3csc(NC(C)=O)n3)nc2c1 (stereo partly drawn)
6.31

Where do these numbers come from? They come from patent US20050159345A1.
